Assign pH to each entry below.
Assay: pH of the salt solutions
Type: physicochemical
Conditions: aqueous solution of the salt, Table 5
// return just the number, without any unit appended

Please report pH for the following compound: CCCN(CCC)CC(=O)O[C@H]1C[C@]2(C)[C@@H](C(=O)CO)CC[C@H]2[C@@H]2CC[C@H]3C[C@H](O)CC[C@]3(C)[C@H]21 [Example 210]
3.7

Please report pH for the following compound: CC(=O)[C@H]1CC[C@H]2[C@@H]3CC[C@H]4C[C@H](O)CC[C@]4(C)[C@H]3[C@@H](OC(=O)CN3CCCCCC3)C[C@]12C [Example 159]
3.55

Please report pH for the following compound: CC(=O)[C@H]1CC[C@H]2[C@@H]3CC[C@H]4C[C@H](O)CC[C@]4(C)[C@H]3[C@@H](OC(=O)CN(C)[C@@H](C)CC(C)C)C[C@]12C [Example 199]
3.12

Please report pH for the following compound: CCCCN(CC)CC(=O)O[C@H]1C[C@]2(C)[C@@H](C(C)=O)CC[C@H]2[C@@H]2CC[C@H]3C[C@H](O)CC[C@]3(C)[C@H]21 [Example 221]
3.52

Please report pH for the following compound: CCCCN(C)CC(=O)O[C@H]1C[C@]2(C)[C@@H](C(C)=O)CC[C@H]2[C@@H]2CC[C@H]3C[C@H](O)[C@@H](Br)C[C@]3(C)[C@H]21 [Example 207]
2.6

Please report pH for the following compound: CC(=O)[C@H]1CC[C@H]2[C@@H]3CC[C@H]4C[C@H](O)CC[C@]4(C)[C@H]3[C@@H](OC(=O)CN3CC4CCC(CC4)C3)C[C@]12C [Example 160]
2.6
